Listing of recorded z-score by entry.
system.under.test: Luciferin 4-monooxygenase (Photinus pyralis)
method: inhibition of purified Photinus pyralis luciferase – biochemical, luminescence, purified enzyme, 2006 set, primary screen (AID 1141);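 note: cell-free assay with purified firefly luciferase at 100 ng per well in PBS; test concentration not given here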
condition.summary: purified firefly luciferase, SteadyGlo luminescence, 30 min; higher = more signal, called active from +8 up or from −8 down
API note: the answer field is a bare number with no unit suffix.

Some entries whose results are on file:
compound="CC1CC/C=C\\[C@H]2OC34C=CCN(Cn5nnc6ccccc65)C(=O)[C@H]3N(CCCCCCO)C(=O)[C@@H]4C2C(=O)O1 (some centres not stated)" test_result=0.152
compound=Cc1ccc(S[C@]2(C(=O)NCC(F)(F)F)CC(=O)N(Cc3ccccc3C(F)(F)F)[C@@H]2c2ccc(CO)cc2)cc1 test_result=0.714
compound=C=C(CCCC)C(=O)CC[C@H](OC(=O)c1ccccc1-c1ccccc1C(=O)O)c1ccc(OCCO)cc1 test_result=-1.95
compound=COc1ccc([Si](C)(C)[C@@H]2[C@@H](CC(=O)N(CCO)Cc3ccccc3)O[C@]3(C(=O)N(Cc4ccc(I)cc4)c4ccccc43)[C@H]2C)cc1 test_result=0.249

Q. Entry under review: `N#Cc1ccc(-c2cccc(=O)o2)cc1` . Reported z-score?
A. 1.68

Q. What value of z-score has been recorded for this entry: `COc1ccc(C(=O)Nc2ccc(CN3C(=O)[C@@]4(O[C@@H](CCn5cc(CCO)nn5)[C@H]([Si](C)(C)c5ccc(OC)cc5)[C@H]4C)c4ccccc43)cc2)cc1`
A. -0.162

Q. What z-score value was documented for this compound, `CC(C)C(=C=CC[C@H](O)c1ccccc1OCCO)C[C@H](O)c1cc(Cl)cc(Cl)c1O` ?
A. -1.38

Where do the numbers come from? From PubChem BioAssay.
